Recorded IC50 at 96 h for the following compounds
Assay: MCF-10A MTT cytotoxicity screening
Assay type: cell-based
Settings: human, MCF-10A normal breast (mammary epithelial) cells, quadruplicate, read-out: Cytotoxicity MCF10A normal breast cells IC50
Description: The cytotoxicity of compounds towards eukaryotic cells was determined using human liver cells (HepG2), non-tumorigenic human mammary epithelial cells (MCF-10A), and breast cancer cells (MDA-MB-468). Cells were purchased from the American Type Culture Collection (Manassas, VA, USA). […] To determine the density of cells in suspension, an aliquot (100 µL) was added to a trypan-blue solution (0.4% w/v, 100 µL), and the number of viable cells were determined using a Neubauer haemocytometer. […]
property name: IC50 at 96 h (µM)

INSERT INTO assay_data (compound, property_name, censor_symbol, endpoint_value) VALUES
  ('O=C(/C=C/c1cccnc1)c1ccc(-c2ccccc2)cc1 [Compound 21]', 'IC50 at 96 h', '=', 7),
  ('O=C(/C=C/c1cccc(Br)c1)c1cccnc1 [Compound 28]', 'IC50 at 96 h', '=', 5.2),
  ('O=C(/C=C/c1cccnc1)c1ccc(O)cc1 [Compound 17]', 'IC50 at 96 h', '>', 100),
  ('COc1cc(C(=O)/C=C/c2cccnc2)cc(OC)c1OC [Compound 16]', 'IC50 at 96 h', '=', 1.5),
  ('O=C(/C=C/c1cccnc1)c1ccccc1O [Compound 18]', 'IC50 at 96 h', '=', 16),
  ('COc1ccc(/C=C\c2cc(OC)c(OC)c(OC)c2)cc1O [Combretastatin A-4, reference compound]', 'IC50 at 96 h', '=', 0.0016),
  ('O=C(/C=C/c1cccnc1)c1ccc2ccc3cccc4ccc1c2c34 [Compound 20]', 'IC50 at 96 h', '=', 2),
  ('O=C(/C=C/c1cccnc1)c1c2ccccc2cc2ccccc12 [Compound 19]', 'IC50 at 96 h', '=', 4.4),
  ('COc1cc(C(=O)/C=C/c2ccc3c(c2)OCO3)cc(OC)c1OC [Compound 2]', 'IC50 at 96 h', '=', 2.3);
